Recorded SPECIFIC PRECIPITATION (CPM), one value per entry.
system: monoclonal antibody 5-21-3; test: Immunoprecipitation of [125I] synthetic peptides by 5-21-3; type: binding, mouse; details: 5-21-3 10.0 μg/ml final

SUBSTANCE	SPECIFIC PRECIPITATION (CPM)
YNYTSLIHSLIEESQNQQEKNEQELLELDKWANLWNWL [P126-162]	295
IHSLIEESQNQQEKNEQELLELDK [P131-154]	0

----------
Recorded SPECIFIC PRECIPITATION (CPM) by 5-21-3, one value per entry.
test system: monoclonal antibody 5-21-3; test: Immunoprecipitation of [125I] synthetic peptides by 5-21-3; format: binding, mouse; details: 5-21-3 10 μg/0.2 ml; PBS, 0.1% Triton X-100, 1.0% BSA, carrier serum; second antibody precipitation
MEASUREMENT_NAME: SPECIFIC PRECIPITATION (CPM) by 5-21-3

SUBSTANCE	MEASUREMENT_NAME	QUANTITY_UNIT	OBSERVED
IHSLIEESQNQQEKNEQELLELDKWANLWNWLNITNWLWYIKLFI [P131-175]	SPECIFIC PRECIPITATION (CPM) by 5-21-3	CPM	317
IHSLIEESQNQQEKNEQELLELDK [P131-154]	SPECIFIC PRECIPITATION (CPM) by 5-21-3	CPM	970

----------
test system: monoclonal antibody 5-21-3; test: Immunoprecipitation of [125I] synthetic peptides by 5-21-3; type: binding, mouse; details: 5-21-3 10 μg/0.2 ml; PBS, 0.1% Triton X-100, 1.0% BSA, carrier serum; second antibody precipitation
Recorded SPECIFIC PRECIPITATION (CPM) by 5-21-3, one value per entry.
MEASUREMENT_NAME: SPECIFIC PRECIPITATION (CPM) by 5-21-3

SUBSTANCE	MEASUREMENT_NAME	OBSERVED
NH2-Asp-Arg-Glu-Ile-Asn-Asn-Tyr-Thr-Ser-Leu-Ile-His-Ser-Leu-Ile-Glu-Glu -Ser-Gln-Asn-Gln-Gln-Glu-Lys-Asn-Glu-Gln-Glu-Leu-Leu-Glu-Leu-Asp-Lys-COOH (H-DREINNYTSLIHSLIEESQNQQEKNEQELLELDK-OH) [P121-154]	SPECIFIC PRECIPITATION (CPM) by 5-21-3	40,717 CPM
ARILAVERYLKDQQLLGIWGCSGKLICTTAVPWNASWSNKSLEQIWNNMTWMEWDREINNYSLIHSLIEESQNQQEKNELLELNK [P67-154]	SPECIFIC PRECIPITATION (CPM) by 5-21-3	479,207 CPM
YNYTSLIHSLIEESQNQQEKNEQELLELDKWANLWNWL [P126-162]	SPECIFIC PRECIPITATION (CPM) by 5-21-3	11,540 CPM

Source: patent US20030118985A1
